Target: Amine oxidase [flavin-containing] B (Homo sapiens, UniProt P27338)
Assay: Inhibition of human recombinant MAO-B assessed as oxidation of kynuramine to 4-hydroxyquinoline after 20 mins
pIC50: −log10 of the molar value.
measured parameter: pIC50

Here is how some compounds turned out for pIC50.
* Cc1cccc(NC(=O)/C=C/c2ccccc2)c1 [N-M-TOLYLCINNAMAMIDE] | 5.35
* O=C(/C=C/c1ccccc1)Nc1cccc(Br)c1 | 6.35
* O=C(/C=C/C=C/c1ccccc1)Nc1cccc(Br)c1 | 5.56
* N#Cc1cccc(/C=C/C(=O)Nc2cccc(Cl)c2)c1 | 7.05
* O=C(/C=C/C=C/c1ccccc1)Nc1ccccc1 | 5.29

(1) N#Cc1cccc(/C=C/C(=O)Nc2cccc(Br)c2)c1
(2) O=C(/C=C/C=C/c1ccccc1)Nc1cccc(Cl)c1
(3) O=C(/C=C/c1cccc(O)c1)Nc1cccc(Br)c1
(4) Cc1cccc(NC(=O)C/C=C/c2ccccc2)c1
Query: Put these in order: smallest pIC50 first, largest last. Output the labels ranked as instructed.
Response: 4, 2, 3, 1
(4: 4.32, 2: 5.66, 3: 6.00, 1: 7.23)

----------
Target: Amine oxidase [flavin-containing] A (Homo sapiens)
Sequence (P21397 whole entry): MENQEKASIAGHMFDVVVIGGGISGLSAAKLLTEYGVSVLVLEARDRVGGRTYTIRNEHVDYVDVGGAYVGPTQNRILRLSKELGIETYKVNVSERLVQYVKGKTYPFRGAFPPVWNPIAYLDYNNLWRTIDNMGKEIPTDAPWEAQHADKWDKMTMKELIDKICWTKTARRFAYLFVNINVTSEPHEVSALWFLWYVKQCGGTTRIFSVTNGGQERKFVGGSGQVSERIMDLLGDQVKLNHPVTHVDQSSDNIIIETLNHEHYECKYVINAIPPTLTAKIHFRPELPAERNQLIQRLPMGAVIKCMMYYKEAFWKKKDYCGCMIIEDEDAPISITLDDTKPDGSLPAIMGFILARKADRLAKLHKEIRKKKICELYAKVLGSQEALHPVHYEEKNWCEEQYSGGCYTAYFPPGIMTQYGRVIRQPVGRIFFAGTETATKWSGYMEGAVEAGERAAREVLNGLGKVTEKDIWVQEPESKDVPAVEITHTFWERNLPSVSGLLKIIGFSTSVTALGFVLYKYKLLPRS
Assay: Inhibition of human recombinant MAO-A assessed as oxidation of kynuramine to 4-hydroxyquinoline after 20 mins
measured parameter: IC50 (µM)

Here is how some molecules turned out for IC50.
* Cc1cccc(NC(=O)C/C=C/c2ccccc2)c1 | 74.8
* O=C(C/C=C/c1ccccc1)Nc1cccc(Br)c1 | 34.5
* O=C(/C=C/C=C/c1ccccc1)Nc1cccc(Cl)c1 | 98.2
* N#Cc1cccc(/C=C/C(=O)Nc2cccc(Br)c2)c1 | 27.2
* O=C(C/C=C/c1ccccc1)Nc1ccccc1 | 297

(I) Cc1cccc(NC(=O)/C=C/c2ccccc2)c1 [N-M-TOLYLCINNAMAMIDE]
(II) O=C(/C=C/c1ccccc1)Nc1cccc(Br)c1
(III) Cc1cccc(NC(=O)/C=C/C=C/c2ccccc2)c1
(IV) O=C(/C=C/C=C/c1ccccc1)Nc1cccc(Br)c1
(V) N#Cc1ccc(/C=C/C(=O)Nc2cccc(Cl)c2)cc1
Query: Put these in order: smallest IC50 first, largest last. Output the labels ranked as instructed.
Response: II, I, IV, V, III

(1) O=C(/C=C/c1ccc(O)cc1)Nc1cccc(Br)c1
(2) N#Cc1cccc(/C=C/C(=O)Nc2cccc(Cl)c2)c1
Query: Lowest IC50? choose 1 or 2 Respond using the label that marks the chosen record.
Response: 2
(2: 13.5 µM, 1: 35.6 µM)

(1) N#Cc1ccc(/C=C/C(=O)Nc2cccc(Br)c2)cc1
(2) O=C(C/C=C/c1ccccc1)Nc1cccc(Cl)c1
Query: Which of the two gives a bigger number for IC50: 1 or 2 ? Respond using the label that marks the chosen record.
Response: 2

----------
Molecular target: Amine oxidase [flavin-containing] B (Homo sapiens, UniProt P27338)
Experiment: Inhibition of human recombinant MAO-B assessed as oxidation of kynuramine to 4-hydroxyquinoline after 20 mins
pIC50: −log10 of the molar value.
measured parameter: pIC50

Here is how some compounds turned out for pIC50.
- O=C(C/C=C/c1ccccc1)Nc1ccccc1: 4.48
- Cc1cccc(NC(=O)/C=C/C=C/c2ccccc2)c1: 5.18

(A) N#Cc1ccc(/C=C/C(=O)Nc2cccc(Br)c2)cc1
(B) O=C(C/C=C/c1ccccc1)Nc1cccc(Cl)c1
Query: Lowest pIC50? choose A or B Respond using the label that marks the chosen record.
Response: B
(B: 4.63, A: 6.54)

----------
Target: Amine oxidase [flavin-containing] B (Homo sapiens, UniProt P27338)
Sequence (P27338 whole entry): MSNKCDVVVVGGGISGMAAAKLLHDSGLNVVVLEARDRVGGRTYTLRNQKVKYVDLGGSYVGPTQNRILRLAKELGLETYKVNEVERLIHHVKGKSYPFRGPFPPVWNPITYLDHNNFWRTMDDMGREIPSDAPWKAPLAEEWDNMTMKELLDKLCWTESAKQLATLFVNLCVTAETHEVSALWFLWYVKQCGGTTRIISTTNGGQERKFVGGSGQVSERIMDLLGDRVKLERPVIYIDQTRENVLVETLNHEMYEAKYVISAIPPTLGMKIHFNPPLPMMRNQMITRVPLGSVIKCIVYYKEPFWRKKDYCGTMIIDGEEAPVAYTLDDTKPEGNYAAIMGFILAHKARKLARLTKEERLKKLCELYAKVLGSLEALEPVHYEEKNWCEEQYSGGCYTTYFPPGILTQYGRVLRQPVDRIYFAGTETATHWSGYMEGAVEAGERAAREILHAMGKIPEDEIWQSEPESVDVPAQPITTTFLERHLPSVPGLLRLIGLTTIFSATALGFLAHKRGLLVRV
Assay: Inhibition of human recombinant MAO-B assessed as oxidation of kynuramine to 4-hydroxyquinoline after 20 mins
measured parameter: IC50 (nM)

(1) O=C(/C=C/c1ccc(O)cc1)Nc1cccc(Br)c1
(2) O=C(C/C=C/c1ccccc1)Nc1cccc(Br)c1
(3) N#Cc1ccc(/C=C/C(=O)Nc2cccc(Cl)c2)cc1
Query: With regard to IC50, arrange the entries in ascending order, please. Output the labels ranked as instructed.
Response: 1, 3, 2

Numbers sourced from ChEMBL document CHEMBL1828524.
